# tested-target: AChE-6MC (truncated AChE Y408F fused with TM and CTD of baculovirus GP64, displayed on Hi5 cells) (Drosophila melanogaster, UniProt P07140, R99G/Y408F)
# Construct: honeybee mellitin signal peptide (HM) (N); expressed in transfected cells; host or cells: Trichoplusia ni High Five (Hi5) cells infected with recombinant baculovirus vAChE-6MC, lyophilised in the plate
# procedure-text: Inhibition of cell-surface displayed AChE-6MC (Ellman's method, ATCh/DTNB, 412 nm)
# Assay type: biochemical
# test-conditions: Hi5 cells infected with vAChE-6MC, 3 days, lyophilized 5 h, 96-well plate; read-out: IC50 of OP and CB towards AChEs, AChE-6MC
endpoint: pIC50
Scale: negative log10 of molar concentration, which is what pIC50 denotes.

Per the record, `CCOP(=O)(OCC)Oc1ccc([N+](=O)[O-])cc1` has pIC50 of 7.26

Measured pIC50, `CNC(=O)Oc1cccc2c1OC(C)(C)C2` : 5.35
